- Test system: RPMI-8226 leukemia
- ASSAY_TEXT: NCI-60 one-dose screen, 48 h (100 = growth as untreated, 0 = no growth, -100 = all killed)
- SETTINGS: 10 µM unless noted
Compounds without any hit were thinned out: in the full panel of roughly 83,000, 20% have a hit.
For each entry below, report its growth value.
Only the number, expressed in %, is required.

**Query** Give the reported growth for `NS(=O)(=O)c1ccc(-n2ncc(NC(=O)Nc3ccc(S(=O)(=O)Nc4nccs4)cc3)c2-c2ccccc2)cc1` (system: RPMI-8226 leukemia).
**Result** 103

**Query** Give the reported growth for Cc1nc2sc(C(=O)Nc3ccccc3)c(N)c2cc1C(C)O (configuration not stated) (system: RPMI-8226 leukemia).
**Result** 16.9

**Query** Give the reported growth for O=C1CC(c2ccc(O)c(O)c2)Oc2cc(O)c([C@@H]3O[C@H](CO)[C@@H](O)[C@H](O)[C@H]3O)c(O)c21 (some centres not stated) (system: RPMI-8226 leukemia).
**Result** 99.3

**Query** Give the reported growth for `COc1cc(C2=N/C(=C\c3cc4ccccc4nc3Oc3ccccc3)C(=O)N2C(=N)N)cc(OC)c1OC` (system: RPMI-8226 leukemia).
**Result** 86.1

**Query** Give the reported growth for `c1ccc(-c2n(Cc3ccc4ccccc4n3)cc[n+]2Cc2ccc3ccccc3n2)cc1` (system: RPMI-8226 leukemia).
**Result** 0.454

**Query** Give the reported growth for `CC(C)C[C@H](C(=O)O)N(C)C(=O)[C@@H]1CCCN1C(=O)[C@H](C)OC(=O)[C@H](CCC(N)=O)NC(=O)[C@@H]1CCC(=O)N1` (system: RPMI-8226 leukemia).
**Result** 108

**Query** Give the reported growth for `CC(=O)c1c(OCC#N)ccc2c(C)cc(=O)oc12` (system: RPMI-8226 leukemia).
**Result** 80

**Query** Give the reported growth for `COc1cc(NCC(=O)Nc2cc(Nc3ccc(C)cc3)ncn2)c(Cl)c(OC)c1Cl` (system: RPMI-8226 leukemia).
**Result** 82.9

**Query** Give the reported growth for `C=C1C(=O)O[C@H]2[C@H]1CC/C(COC(=O)NCc1nc3ccccc3[nH]1)=C\CC[C@@]1(C)O[C@@H]21` (system: RPMI-8226 leukemia).
**Result** 34.7

**Query** Give the reported growth for `O=C(CSC(=S)N1CCCCC1)Nc1ccccc1` (system: RPMI-8226 leukemia).
**Result** 84.6

**Query** Give the reported growth for CCOc1ccc(C2N(c3cc(OC)c(OC)c(OC)c3)C(=O)C2(F)F)cc1 (configuration not stated) (system: RPMI-8226 leukemia).
**Result** 14.6

**Query** Give the reported growth for `O=C(/C(=C/c1ccc([N+](=O)[O-])cc1)SCc1ccc(Cl)cc1)c1ccc(F)cc1` (system: RPMI-8226 leukemia).
**Result** -25.6

**Query** Give the reported growth for `C#C[C@@]1(O)[C@@H](CO)O[C@@H](n2cc(Br)c3c(N)ncnc32)[C@@H]1O` (system: RPMI-8226 leukemia).
**Result** 0.406

**Query** Give the reported growth for `CCCCOc1nc2ccc(C)cc2cc1/C=C/C(=O)/C=C/c1ccc2c(c1)OCO2` (system: RPMI-8226 leukemia).
**Result** 5.04

**Query** Give the reported growth for `Nc1cc(N)c(S(=O)(=O)O)cc1N=Nc1cc([N+](=O)[O-])ccc1O` (system: RPMI-8226 leukemia).
**Result** 98.8

**Query** Give the reported growth for `COc1ccc(/C=C(/C(=O)N2CCN(Cc3ccccc3)CC2)c2cc(OC)c(OC)c(OC)c2)cc1O` (system: RPMI-8226 leukemia).
**Result** 66.9

**Query** Give the reported growth for `CCCCn1c(=O)c(/C=C/C(=O)/C=C/c2ccc(O)c(OC)c2)cc2ccc(Cl)cc21` (system: RPMI-8226 leukemia).
**Result** -14.2

**Query** Give the reported growth for `CCOC(=O)/C=C1\SC(=Nc2ccc(C#N)cc2)N(CCN2C(=O)/C(=C/C(=O)OCC)SC2=Nc2ccc(C#N)cc2)C1=O` (system: RPMI-8226 leukemia).
**Result** -26.8

**Query** Give the reported growth for `COc1cc(C(=O)Nc2cc(OC)c3ccn(C)c3c2)cc2c1C[C@]1(C)CC[C@@H](O)C(C)(C)[C@H]1O2` (system: RPMI-8226 leukemia).
**Result** -31.1

**Query** Give the reported growth for Cc1nc2sc(C(=O)Nc3ccccc3Cl)c(N)c2cc1C(C)O (configuration not stated) (system: RPMI-8226 leukemia).
**Result** 88.1

**Query** Give the reported growth for `Cc1cccc(NC(=O)c2sc3nc4c(cc3c2N)CN(Cc2ccccc2)CC4)c1C` (system: RPMI-8226 leukemia).
**Result** 26.8

**Query** Give the reported growth for `O=C(CCl)N1CCCc2ccccc21` (system: RPMI-8226 leukemia).
**Result** 102

###

- Tested on: COLO 205 colon
- ASSAY_TEXT: NCI-60 one-dose screen, 48 h
- SETTINGS: 10 µM unless noted
This is part of a sample that, as a whole, favours compounds with a hit. Of some 83,000 tested, about 20% had one in any assay. The source made the active and inactive calls. Rule for the calls: active = growth percent below 10; inactive = the rest.
API: response.call in class 1 = active, class 0 = inactive

**Query** Answer briefly: the call reported for c1cc(CNC23CC4CC(CC(C4)C2)C3)cc(C[N+](Cc2cccc(CNC34CC5CC(CC(C5)C3)C4)c2)(Cc2cccc(CNC34CC5CC(CC(C5)C3)C4)c2)Cc2cccc(CNC34CC5CC(CC(C5)C3)C4)c2)c1 (stereo unspecified) in this assay.
**Result** class 1

**Query** Answer briefly: the call reported for `COc1cc(/C=C/C(=O)/C=C/c2cc3ccc(Cl)cc3[nH]c2=O)ccc1O` in this assay.
**Result** class 0

**Query** Answer briefly: the call reported for `c1ccc(-c2cn3ccnc3c(-c3ccc4c(c3)ncn4C3CCCCC3)n2)cc1` in this assay.
**Result** class 0

**Query** Answer briefly: the call reported for `Oc1ccccc1-c1nc2c3ccccc3c3ccccc3c2o1` in this assay.
**Result** class 0

**Query** Answer briefly: the call reported for `O=C(O)CCNC1CCCCC1` in this assay.
**Result** class 0

**Query** Answer briefly: the call reported for `CCOC(=O)c1c(C)nc2c(c1N)/C(=C/c1ccccn1)C(=O)N2Cc1ccccc1` in this assay.
**Result** class 1

**Query** Answer briefly: the call reported for `O=C1C(=O)c2c(nc3ccc(C(F)(F)F)cn23)-c2ccccc21` in this assay.
**Result** class 1

**Query** Answer briefly: the call reported for `Cc1cnc(SCc2ccc(Cl)cc2)[nH]c1=S` in this assay.
**Result** class 0

**Query** Answer briefly: the call reported for Nc1ccc(C2=NN(C(=O)c3cc(-c4ccc(Cl)cc4)nc4ccccc34)C(c3ccccc3)C2)cc1 (stereo unspecified) in this assay.
**Result** class 0

**Query** Answer briefly: the call reported for `Cc1cccc(C)c1NCc1nnc(-c2ccco2)o1` in this assay.
**Result** class 0

**Query** Answer briefly: the call reported for `[2H]c1nc(Nc2ncc3cc(C(=O)N(C)C)n(C4CCCC4)c3n2)c([2H])c([2H])c1N1C([2H])([2H])C([2H])([2H])NC([2H])([2H])C1([2H])[2H]` in this assay.
**Result** class 0

**Query** Answer briefly: the call reported for Cc1ccccc1NC(=O)c1sc2nc(C)c(C(C)O)cc2c1N (stereo unspecified) in this assay.
**Result** class 0

**Query** Answer briefly: the call reported for `CCCCn1c(=O)c(/C=C/C(=O)/C=C/c2ccc(O)c(OC)c2)cc2ccc(Cl)cc21` in this assay.
**Result** class 0

**Query** Answer briefly: the call reported for CCCS(=O)(=O)Nc1ccc(F)c(C(=O)c2c[nH]c3ncc(-c4ccc(OCCCC5CCCCN5)nc4)cc23)c1F (stereo unspecified) in this assay.
**Result** class 1

**Query** Answer briefly: the call reported for `CCCCCOC(=O)c1ccccc1O` in this assay.
**Result** class 0

**Query** Answer briefly: the call reported for `O=c1[nH]c(-c2cccc(F)c2)cc2cc(F)ccc12` in this assay.
**Result** class 1

**Query** Answer briefly: the call reported for `c1ccc(-c2n(Cc3ccc4ccccc4n3)cc[n+]2Cc2ccc3ccccc3c2)cc1` in this assay.
**Result** class 1

**Query** Answer briefly: the call reported for `O=C(/C(=C/c1ccc([N+](=O)[O-])cc1)SCc1ccc(F)cc1)c1ccc(Cl)cc1` in this assay.
**Result** class 0

**Query** Answer briefly: the call reported for `COc1ccc(-n2nc(C(=O)NCC(=O)O)nc2-c2ccccc2)cc1` in this assay.
**Result** class 0

**Query** Answer briefly: the call reported for `O=C(CCc1nnc2sc(OCc3ccccc3)nn12)c1nc2ccc([N+](=O)[O-])cc2[nH]1` in this assay.
**Result** class 0

**Query** Answer briefly: the call reported for `C=C1C(=O)O[C@H]2[C@H]1CC/C(COC(=O)c1cccnc1)=C\CC[C@@]1(C)O[C@@H]21` in this assay.
**Result** class 0

**Query** Answer briefly: the call reported for `NC(=O)C(O)(c1ccccc1)c1ccccc1` in this assay.
**Result** class 0

**Query** Answer briefly: the call reported for `COc1ccc(N(C)c2nc(Cl)nc3ccn(C)c23)cc1` in this assay.
**Result** class 1

**Query** Answer briefly: the call reported for `CS(=O)(=O)O[C@@H]1C(=O)N(c2cc3c4ccccc4ccc3c3ccccc23)[C@H]1c1ccc(F)cn1` in this assay.
**Result** class 0

**Query** Answer briefly: the call reported for `COc1cccc(C(=O)OCCn2nc3c4c(cccc42)C(=O)c2ccccc2-3)c1O` in this assay.
**Result** class 0

**Query** Answer briefly: the call reported for `O=C(CCc1nnco1)c1nc2ccc([N+](=O)[O-])cc2[nH]1` in this assay.
**Result** class 0
